Cited source for all entries: ChEMBL document CHEMBL4689842

Test system: U2OS
Assay: Multiplex assay against U2OS
Format: toxicity, cell-based
Conditions: human, 24 h, 1 µM, compound concentration 1 uM, replicate 1
Please respond with reported Total Cell Count for every item in the list.
Keep the answer to the number alone.

# Total Cell Count of CCn1c(=O)c(-c2ccc(-c3cncs3)cc2Cl)cc2cnc(Nc3ccc(N4CCN(C)CC4)cc3)nc21 = 161

# Total Cell Count of CCn1cc(-c2ccnc3[nH]c(-c4cccc(CN(C)C)c4)cc23)c(-c2ccc(NC(=O)N(C)C)cc2)n1 = 141

# Total Cell Count of O=C1NC(=O)C(c2cnc3ccccn23)=C1c1cn2c3c(cc(F)cc13)CN(C(=O)N1CCCCC1)CC2 = 124

# Total Cell Count of COc1cc(N2CCN(C)CC2)ccc1Nc1ncc2c(n1)N(C)c1ccccc1C(=O)N2C = 187

# Total Cell Count of CCNc1cc(N[C@H]2CC[C@H](O)CC2)nc(Nc2ccc3c(ccn3Cc3ccccc3)c2)n1 = 167

# Total Cell Count of CNc1cc(Oc2cc(C(=O)Nc3cc(N4CCN(C)CC4)cc(C(F)(F)F)c3)ccc2C)ncn1 = 174

# Total Cell Count of Cl.Oc1ccc2c3c1O[C@H]1c4[nH]c5c(c4C[C@@]4(O)[C@@H](C2)N(CC2CC2)CC[C@]314)C[C@@]1(O)[C@H]2Cc3ccc(O)c4c3[C@@]1(CCN2CC1CC1)[C@H]5O4 = 113

# Total Cell Count of CCOC(=O)c1c(C)[nH]c2ccc3c(c12)CN1CCc2cc(OC)ccc2C1O3 (centres undefined) = 127

# Total Cell Count of COc1ccc(-c2ccc3c(N4CCOCC4)nc(N4C[C@@H](C)O[C@@H](C)C4)nc3n2)cc1CO = 173

# Total Cell Count of CCc1cccc(CC)c1NC(=O)c1nn(C)c2c1CCc1cnc(Nc3ccc(C(=O)NC4CCN(C)CC4)cc3OC(F)(F)F)nc1-2 = 190

# Total Cell Count of NC(=O)c1cccc(-c2cc(Nc3ccc(OC(F)(F)F)cc3)ncn2)c1 = 576

# Total Cell Count of Cc1cc(C)c(S(=O)(=O)N(Cc2ccc(-c3cccc(S(C)(=O)=O)c3)cc2)Cc2ccc(C(F)(F)F)o2)c(C)c1 = 89

# Total Cell Count of Cl.O=C(c1ccc(Nc2nccc(-c3cc4ccccc4s3)n2)cc1)N1CCC(N2CCCC2)CC1 = 148

# Total Cell Count of Cn1nc(C(F)(F)F)cc1-c1cnc(N2CCc3cc(S(=O)(=O)Nc4c(F)cc(Cl)cc4F)cc(N4CCCC4=O)c32)nc1 = 196

# Total Cell Count of C=CCn1c(=O)c2cnc(Nc3ccc(N4CCN(C)CC4)cc3)nc2n1-c1cccc(C(C)(C)O)n1 = 155

# Total Cell Count of Cc1ccc(C(=O)Nc2cccc(C(F)(F)F)c2)cc1Nc1nc(-c2cccnc2)nc2c1cnn2C = 153

# Total Cell Count of C=C1/C(=C\C=C2/CCC[C@]3(C)[C@@H]([C@H](C)/C=C/[C@H](C)C(C)C)CC[C@@H]23)C[C@@H](O)C[C@@H]1O = 1

# Total Cell Count of CCCS(=O)(=O)Nc1ccc(F)c(C(=O)c2c[nH]c3ncc(Cl)cc23)c1F = 201

# Total Cell Count of CCCS(=O)(=O)c1nc(NC2CC2)cc(-c2ccc3c(ccn3C3CC(C)(C)NC(C)(C)C3)c2)n1 = 749
